Catalogue of Relative potency values
target: 3-hydroxy-3-methylglutaryl-coenzyme A reductase (Rattus norvegicus) (UniProt P51639); assay: Relative potency against HMG-CoA reductase activity in partially purified rat liver; format: functional
Sequence (P51639 whole entry): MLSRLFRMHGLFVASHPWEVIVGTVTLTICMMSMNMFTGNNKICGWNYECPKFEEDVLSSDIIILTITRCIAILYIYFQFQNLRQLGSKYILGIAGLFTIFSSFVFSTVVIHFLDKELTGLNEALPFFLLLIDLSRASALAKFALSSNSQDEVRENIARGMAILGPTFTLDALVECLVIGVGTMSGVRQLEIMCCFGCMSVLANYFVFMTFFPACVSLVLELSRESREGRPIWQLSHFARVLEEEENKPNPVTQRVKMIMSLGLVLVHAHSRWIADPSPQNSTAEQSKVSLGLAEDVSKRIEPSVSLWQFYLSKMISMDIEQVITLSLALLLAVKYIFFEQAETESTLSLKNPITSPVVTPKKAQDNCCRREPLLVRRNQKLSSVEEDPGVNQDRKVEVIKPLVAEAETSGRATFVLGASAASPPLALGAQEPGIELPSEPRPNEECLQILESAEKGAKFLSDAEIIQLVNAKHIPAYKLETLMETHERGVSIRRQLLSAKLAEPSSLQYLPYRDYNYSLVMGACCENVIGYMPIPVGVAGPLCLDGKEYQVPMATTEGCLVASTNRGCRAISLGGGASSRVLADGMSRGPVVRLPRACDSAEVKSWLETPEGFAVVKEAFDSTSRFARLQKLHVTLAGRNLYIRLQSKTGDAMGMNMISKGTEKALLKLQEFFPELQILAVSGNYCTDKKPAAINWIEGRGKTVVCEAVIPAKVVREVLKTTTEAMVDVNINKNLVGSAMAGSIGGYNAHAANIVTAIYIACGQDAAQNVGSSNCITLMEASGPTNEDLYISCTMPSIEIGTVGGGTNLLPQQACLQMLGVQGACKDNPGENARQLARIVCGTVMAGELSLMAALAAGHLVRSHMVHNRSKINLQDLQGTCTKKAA
Kindly provide the number alone.

Example entries and their recorded answers appear below.
• CCOC(=O)c1c(-c2ccccc2)c(-c2ccc(F)cc2)n(CC[C@@H]2C[C@@H](O)CC(=O)O2)c1C(C)C = 35.5
• CC(C)c1c(C(=O)Nc2ccccc2)c(-c2ccccc2)c(-c2ccc(F)cc2)n1CC[C@@H]1C[C@@H](O)CC(=O)O1 (racemic) = 81.4
• CCOC(=O)c1c(-c2ccccc2)c(-c2ccccc2)n(CC[C@@H]2C[C@@H](O)CC(=O)O2)c1CC = 6.3
• CC(C)c1cc(-c2ccccn2)c(-c2ccc(F)cc2)n1CC[C@@H]1C[C@@H](O)CC(=O)O1 = 76
• CC(C)c1c(Br)c(Br)c(-c2ccc(F)cc2)n1CC[C@@H]1C[C@@H](O)CC(=O)O1 = 78.6
• CC(C)c1cc(-c2cccnc2)c(-c2ccc(F)cc2)n1CC[C@@H]1C[C@@H](O)CC(=O)O1 = 9.4
• COC(=O)c1c(C(=O)OC)c(C(C)C)n(CC[C@@H]2C[C@@H](O)CC(=O)O2)c1-c1ccc(F)cc1 = 14.3
• CCOC(=O)c1c(-c2ccccc2)c(C(C)C)n(CC[C@@H]2C[C@@H](O)CC(=O)O2)c1-c1ccc(F)cc1 = 100
• Cc1c(C)c(C(C)C)n(CC[C@@H]2C[C@@H](O)CC(=O)O2)c1-c1ccc(F)cc1 = 16
• CC(C)c1c(-c2ccccc2)cc(-c2ccc(F)cc2)n1CC[C@@H]1C[C@@H](O)CC(=O)O1 = 36.3

The measured Relative potency associated with CC(C)c1cc(-c2ccccc2)c(-c2ccc(F)cc2)n1CC[C@@H]1C[C@@H](O)CC(=O)O1 reads 12.5

Lookup result for CCOC(=O)c1c(-c2ccccc2)c(-c2ccccc2)n(CC[C@@H]2C[C@@H](O)CC(=O)O2)c1C(C)C ; measured Relative potency: 23.5

Entry CC(C)c1cc(C(=O)C(F)(F)F)c(-c2ccc(F)cc2)n1CC[C@@H]1C[C@@H](O)CC(=O)O1 — recorded Relative potency = 8.8

Relative potency reading for CC(C)c1c(C(=O)Nc2ccccc2)c(-c2ccccc2)c(-c2ccc(F)cc2)n1CC[C@@H]1C[C@@H](O)CC(=O)O1 (stereo in doubt; (-)-33) : 13.9

Memo: CC(C)c1cc(-c2ccncc2)c(-c2ccc(F)cc2)n1CC[C@@H]1C[C@@H](O)CC(=O)O1 , reported Relative potency: 2.1

Entry CCOC(=O)c1c(C(=O)OCC)c(C(C)C)n(CC[C@@H]2C[C@@H](O)CC(=O)O2)c1-c1ccc(F)cc1 — recorded Relative potency = 2.8
